These measurements were taken from patent US11524945B2.

# System: HepG2 cells
# procedure details: Mitochondrial toxicity in HepG2 cells
# Type: cell-based
# reported conditions: Homo sapiens; HepG2 cells, Glucose; read-out: IC50 (μM)_Glucose
parameter: IC50 (µM)
Record the value in µM, omitting the unit from your answer.

smiles input	obs value
CCc1nn(CCCN2CCN(c3cccc(Cl)c3)CC2)c(=O)n1CCOc1ccccc1	77.2

For the next question, use this compound.
Name the recorded IC50 of the compound listed here: C[C@@H]1CC[C@@]2(OC1)O[C@H]1[C@@H](O)[C@H]3[C@@H]4CC[C@H]5C[C@@H](O[C@@H]6O[C@H](CO)[C@H](O[C@@H]7O[C@H](CO)[C@@H](O)[C@H](O[C@@H]8OC[C@@H](O)[C@H](O)[C@H]8O)[C@H]7O[C@@H]7O[C@H](CO)[C@H](O)[C@H](O[C@@H]8O[C@H](CO)[C@@H](O)[C@H](O)[C@H]8O)[C@H]7O)[C@H](O)[C@H]6O)[C@H](O)C[C@]5(C)[C@H]4CC[C@]3(C)[C@H]1[C@@H]2C
4.3
